This collection of values is drawn from the kinase profiling compilation of Christmann-Franck et al. (2016).

Target: EEF2K (human) (UniProt O00418)
Sequence (O00418 whole entry, looked up): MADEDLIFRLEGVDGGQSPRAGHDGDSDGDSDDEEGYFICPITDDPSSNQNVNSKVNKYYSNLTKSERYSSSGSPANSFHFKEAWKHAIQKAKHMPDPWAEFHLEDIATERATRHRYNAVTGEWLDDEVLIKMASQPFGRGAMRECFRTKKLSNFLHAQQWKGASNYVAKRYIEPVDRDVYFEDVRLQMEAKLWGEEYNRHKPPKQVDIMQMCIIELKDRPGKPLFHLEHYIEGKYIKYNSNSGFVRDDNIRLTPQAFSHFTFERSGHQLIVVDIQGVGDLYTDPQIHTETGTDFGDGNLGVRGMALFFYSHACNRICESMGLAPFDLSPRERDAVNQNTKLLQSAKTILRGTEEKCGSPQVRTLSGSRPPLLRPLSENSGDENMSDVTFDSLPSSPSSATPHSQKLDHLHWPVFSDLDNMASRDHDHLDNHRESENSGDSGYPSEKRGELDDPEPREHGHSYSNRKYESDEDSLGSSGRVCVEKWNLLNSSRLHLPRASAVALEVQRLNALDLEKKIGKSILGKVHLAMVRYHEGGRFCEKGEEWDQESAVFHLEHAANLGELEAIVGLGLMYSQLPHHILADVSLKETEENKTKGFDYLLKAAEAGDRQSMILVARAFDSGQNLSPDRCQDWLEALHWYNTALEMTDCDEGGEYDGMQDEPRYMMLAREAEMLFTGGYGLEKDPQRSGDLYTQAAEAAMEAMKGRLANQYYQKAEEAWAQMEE
Assay: Caliper, Mobility shift assay off-chip
Conditions: compound 0.02 µM
parameter: inhibition (%)

{"compound-smiles": "COc1cc2c(Oc3ccc4[nH]c(C)cc4c3F)ncnc2cc1OCCCN1CCCC1", "inhibition, %": -5.2}
{"compound-smiles": "Cc1ccc(Nc2nccc(N(C)c3ccc4c(C)n(C)nc4c3)n2)cc1S(N)(=O)=O", "inhibition, %": 2.9}

a: CNC(=O)c1ccccc1Sc1ccc2c(/C=C/c3ccccn3)n[nH]c2c1
b: CNC(=O)c1cc(Oc2ccc(NC(=O)Nc3ccc(Cl)c(C(F)(F)F)c3)cc2)ccn1
I'm curious, which of these has a smaller inhibition number: a or b ? Use the label to indicate which entry you chose.
b
(b: -3.9%, a: 2.3%)
